The measured values listed here are drawn from patent WO2024019110A1.

# studyTarget: Delta strain RBD, biotinylated (SARS-CoV-2 (Delta strain), UniProt P0DTC2 331-529)
# assay: BLI (Octet), biotinylated RBD on streptavidin biosensor, Fab in solution

| binder | Kd |
| --- | --- |
| recombinant Fab protein of antibody No. 5 (Fab, V domains shown) VH: EVQLVESGGGLVQPGGSLRLSCAASGFTFYSYWMTWVRQAPGKGLEWVANIKHDESESHYVDSVRGRFTISRDNAKNSVYLQMKGLRAEDTAVYYCARDGGYNILTAYYHAPSYWGQGTLVTVSS VL: QSALTQPASVSGSPGQSITISCTGTSSDVGGYNFVSWYRQYPGKAPQLMIYDVSRRPSGDSDRFSGSKSGNTASLTISGLQAEDEAEYHCSSYTGRSPYVVFGGGTKVTVL | ≤ 100 nM |
